Target: T1, human CD73 on Calu6 cells (human, UniProt P21589 27-549)
T1 sequence (looked up): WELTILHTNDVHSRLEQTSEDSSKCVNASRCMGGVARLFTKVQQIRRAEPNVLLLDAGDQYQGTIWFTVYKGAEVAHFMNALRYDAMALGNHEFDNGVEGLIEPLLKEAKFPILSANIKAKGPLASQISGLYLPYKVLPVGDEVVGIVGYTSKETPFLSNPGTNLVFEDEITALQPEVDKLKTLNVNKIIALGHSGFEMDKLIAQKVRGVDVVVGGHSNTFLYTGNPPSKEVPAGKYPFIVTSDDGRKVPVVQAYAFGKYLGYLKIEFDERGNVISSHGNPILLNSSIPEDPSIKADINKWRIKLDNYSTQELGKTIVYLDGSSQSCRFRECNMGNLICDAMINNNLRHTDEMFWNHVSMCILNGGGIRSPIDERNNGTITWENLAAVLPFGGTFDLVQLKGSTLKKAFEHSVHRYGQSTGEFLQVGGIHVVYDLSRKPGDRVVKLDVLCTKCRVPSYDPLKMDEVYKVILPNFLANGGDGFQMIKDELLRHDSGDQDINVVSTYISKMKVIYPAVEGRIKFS
Assay: cell-based or functional assay
quantity-measured: Inhibition of CD73 enzyme activity IC50(nM), Calu6
Give bare numbers, in nM.

Worked examples follow.
- binder: "CD73 antibody 7E10 (antibody, V domains shown, Mouse variable regions on human IgG heavy chain constant region and human kappa constant region (chimeric IgG); also called Clone 7E10) VH: QVQFQQSGAELVRPGASVKLSCKASGYIFSSYWIQWVKQRPGQGLEWIGAIYPGDGDTRYTQKFKDKATLTADKSSSTAYMQLSSLASEDSAVYYCAGFASWGQGTLVTVSA VL: DIQMTQSPSSLSASLGERVSLTCRASQDIGSSLNWLQQEPNGTIKRLIYATSSLDSGVPKRFSGSRSGSDYSLTISSLESEDFADYYCLQYASSPYTFGGGTKLEIK"
  measurement-units: "nM"
  readout-number: 7.66
- binder: "CD73 antibody 14E4 (antibody, V domains shown, Mouse variable regions on human IgG heavy chain constant region and human kappa constant region (chimeric IgG); also called Clone 14E4) VH: QVQLQQSGPELVKPGASVKISCKASGYIFTNYYIHWVKQRPGQGLEWIGWIFPGSGNTKYSEKFKDKATLTADTSSSTAYMQLSSLTSEDSAVYFCAGLSDWGQGTTLTVSS VL: DIQMTQSPSSLSASLGERVSLTCRASQDIGDRLIWLQQEPAGTFKRLIYATSSLDSGVPKRFSGSRSGSDYSLTISSLESEDFVDYYCLQYASSPWTFGGGTKLEIK"
  measurement-units: "nM"
  readout-number: 4.57

Please give Inhibition of CD73 enzyme activity IC50(nM), Calu6 for each item listed below.
1. CD73 antibody 6G8 (chimeric) (antibody, V domains shown, Mouse variable regions on human IgG heavy chain constant region and human kappa constant region (chimeric IgG); also called Clone 6G8; 6G8 Chimera) VH: QVTLKESGPGILKPSQTLSLTCSFSGFSLNTSGMGVGWIRQPSGKGLEWLAHIWWDDDKYYNPSLKSQLTISKDTSRNQVFLRIASVDTADTATYYCARRERWAWFAYWGQGTLVTVSA VL: DIVMTQSQKFMSASVGDRVSVTCKASQNVFTNVAWYQQKPGQSPKVLIYSASYRYSGVPDRFTGSGSGTDFTLTINNVQSEDLAEYFCQQYNSYPTFGSGTKLEIK
2. CD73 antibody 14H10 (antibody, V domains shown, Mouse variable regions on human IgG heavy chain constant region and human kappa constant region (chimeric IgG)) VH: QIQLQQSGAELARPGASVNLSCKASGYSFTSYWMQWLKQRPGQGLEWIGAIYPGDGDTRYTQKFKGKATLTADKSSSTAYMQLSSLASEDSAVYYCALFSYWGQGTLVTVSA VL: DIQMTQSPSSLSASLGERVSLTCRASQDIGSSLNWLQQEPDGTFKRLIYATSTLDSGVPKRFSGSRSGSDYSLTISSLESEDFVDYYCLQYASFPYTFGGGTKLEIK
3. CD73 antibody 8A8 (antibody, V domains shown, Mouse variable regions on human IgG heavy chain constant region and human kappa constant region (chimeric IgG); also called Clone 8A8) VH: QVQFQQSGAELARPGASVKLSCKASGYIFTSYWIQWIKQRPGQGLEWIGAIYPGDGDTRYTQKFKGKATLTADKSSSTAYMQLRSLASEDSAVYYCAGFASWGQGTLLTVSA VL: DIQMTQSPSSLSASLGERVSLTCRASQDIGESLIWLQQEPDGTIKRLIYATSSLDSGVPKRFSGSRSGSDYSLSISSLESDDFVDYYCLQYSSSPYTFGGGTKLEIK
4. CD73 antibody 2H2 (antibody, V domains shown, also called Clone 2H2) VH: EVKLVESGGGLVQPGGSLKLSCATSGFTFSDYYMYWVRQTPEKRLEWVAYISNVGGSTYYPDTVKGRFTISRDNAKNTLYLQMSRLKSEDTAMYYCARGDGYYGYYFDVWGAGTTVTVSS VL: ENVLTQSPAIMSASPGEKVTMTCSASSSVSYMHWYQQKSGTSPKRWIYDTSKLASGVPTRFSGSGSGTSFSLTISSMEAEDAATYYCQQWSSNPYTFGGGTKLEIK
5. CD73 antibody 22C12 (antibody, V domains shown, Mouse variable regions on human IgG heavy chain constant region and human kappa constant region (chimeric IgG); also called Clone 22C12; mAb22C12) VH: QVQFQQSGAELARPGASVKLSCKASGYTFTGYWIQWVKQRPGQGLEWIGAIYPGDDDTRYTQKFKGRATLTADTSSSTAYMQLSSLASEDSAVYYCARGNWDDWDFDVWGAGTTVTVSS VL: DIQMTQTTSSLSASLGDRVTISCRASQDISNYLNWYQQKPDGTVKLLIHYTSRLHSGVPSRFSGSGSGTDYSLTISNLEQEDIATYFCQQGDTLPWTFGGGTKLEIK

1.72
1.71
4.89
4.03
0.97

Please give Inhibition of CD73 enzyme activity IC50(nM), Calu6 for each item listed below.
1. CD73 antibody 6A8 (antibody, V domains shown, Mouse variable regions on human IgG heavy chain constant region and human kappa constant region (chimeric IgG); also called Clone 6A8) VH: QVQFQQSGAELARPGTSVKLSCKASGYIFTSYWIQWIKQRPGQGLEWIGAIYPGDGDTRYTQKFKGKATLTAEKSSSTAYMQLRSLASEDSAVYYCAGFASWGQGTLLTVSA VL: DIQMTQSPSSLSASLGERVNLTCRASQDIGDSLIWLQQEPDGTIKRLIYATSSLDSGVPKRFSGSRSGSDYSLTISSLESEDLVDYYCLQYASSPFTFGGGTKLEIK
2. CD73 antibody 2D4 (antibody, V domains shown, also called Clone 2D4) VH: EVKLVESGGGLVQPGGSLKLSCATSGFTFSDYYMYWVRQTPEKRLEWVAYISNVGGSTYYPDTVKGRFTISRDNAKNTLYLQMSRLKSEDTAIYYCARGDGYYGYYFDVWGAGTTVTVSS VL: QIVLTQSPAIMSASPGEKVTMTCSASSSVSYMHWYQQKSGTSPKRWIYDTSKLASGVPARFSGSGSGTSYSLTISSMEAEDAATYYCQQWSSNPYTFGGGTKLEIK

1: 6.63; 2: 0.47
